Values from the supplement of paper PMC10567573

Below: a set of entries, each annotated with reported protein stability index.
B1: TRIM35 (parent)
chain: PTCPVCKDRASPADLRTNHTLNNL

Variants of: B1
method notes: protein stability index of a GFP-peptide fusion (GPS, HEK-293T) (PSI 1-6); higher = more stable;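 further: lentivirally expressed fusions sorted by FACS into six bins by GFP to DsRed ratio, PSI derived from sequencing read proportions per bin multiplied by bin number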
condition summary: c terminus: a fixed tail appended
property name: protein stability index

{"variant string": "A13I", "property name": "protein stability index", "reported result": 2.53}
{"variant string": "N22D", "property name": "protein stability index", "reported result": 4.1}
{"variant string": "T17P", "property name": "protein stability index", "reported result": 3.34}
{"variant string": "L21R", "property name": "protein stability index", "reported result": 2.55}
{"variant string": "P12M", "property name": "protein stability index", "reported result": 2.35}
{"variant string": "N18W", "property name": "protein stability index", "reported result": 2.16}
{"variant string": "P4R", "property name": "protein stability index", "reported result": 3.38}
{"variant string": "A13G", "property name": "protein stability index", "reported result": 3.23}
{"variant string": "N23D", "property name": "protein stability index", "reported result": 3.81}
{"variant string": "D14P", "property name": "protein stability index", "reported result": 2.98}
{"variant string": "V5H", "property name": "protein stability index", "reported result": 2.36}
{"variant string": "C3N", "property name": "protein stability index", "reported result": 4.05}
{"variant string": "D14M", "property name": "protein stability index", "reported result": 2.2}
{"variant string": "R9K", "property name": "protein stability index", "reported result": 3.16}
{"variant string": "N22M", "property name": "protein stability index", "reported result": 2.67}
{"variant string": "L24E", "property name": "protein stability index", "reported result": 4.03}
{"variant string": "K7Q", "property name": "protein stability index", "reported result": 3.37}
{"variant string": "H19A", "property name": "protein stability index", "reported result": 2.86}
{"variant string": "N18P", "property name": "protein stability index", "reported result": 2.83}
{"variant string": "T20R", "property name": "protein stability index", "reported result": 2.93}
{"variant string": "P12N", "property name": "protein stability index", "reported result": 2.89}
{"variant string": "T20A", "property name": "protein stability index", "reported result": 3.11}
{"variant string": "D14E", "property name": "protein stability index", "reported result": 3.12}
{"variant string": "N18R", "property name": "protein stability index", "reported result": 2.71}
{"variant string": "N18H", "property name": "protein stability index", "reported result": 2.94}
{"variant string": "P12W", "property name": "protein stability index", "reported result": 2.03}
{"variant string": "N22R", "property name": "protein stability index", "reported result": 1.98}
{"variant string": "T20I", "property name": "protein stability index", "reported result": 2.76}
{"variant string": "T17R", "property name": "protein stability index", "reported result": 3.1}
{"variant string": "D14Q", "property name": "protein stability index", "reported result": 3.18}
{"variant string": "A13W", "property name": "protein stability index", "reported result": 1.81}
{"variant string": "A13K", "property name": "protein stability index", "reported result": 3.65}
{"variant string": "A13V", "property name": "protein stability index", "reported result": 2.62}
{"variant string": "P4K", "property name": "protein stability index", "reported result": 3.21}
{"variant string": "N18K", "property name": "protein stability index", "reported result": 2.48}
{"variant string": "L21G", "property name": "protein stability index", "reported result": 3.3}
{"variant string": "C6K", "property name": "protein stability index", "reported result": 4.31}
{"variant string": "C3W", "property name": "protein stability index", "reported result": 3.89}
{"variant string": "C6V", "property name": "protein stability index", "reported result": 4.22}
{"variant string": "T2G", "property name": "protein stability index", "reported result": 2.95}
{"variant string": "L24V", "property name": "protein stability index", "reported result": 3.56}
{"variant string": "L21T", "property name": "protein stability index", "reported result": 3.07}
{"variant string": "R16Y", "property name": "protein stability index", "reported result": 2.42}
{"variant string": "T2C", "property name": "protein stability index", "reported result": 2.9}
{"variant string": "T20N", "property name": "protein stability index", "reported result": 3}
{"variant string": "L15H", "property name": "protein stability index", "reported result": 3.14}
